Consider the following molecules and their measured IC50 at 3 days readings.
experimental protocol: in vitro
Assay type: cell-based
cond: mouse
Residues, ends and D or L forms follow the SMILES beside them.

- molecule: "CC[C@H](C)[C@H](NC(=O)[C@H](CCC(N)=O)NC(=O)[C@H](CC(=O)O)NC(=O)[C@H](CC(C)C)NC(=O)[C@@H](N)CS)C(=O)NCC(=O)N[C@@H](CCC(=O)O)C(=O)N[C@@H](Cc1ccccc1)C(=O)N[C@@H](CCC(N)=O)C(=O)N[C@@H](CS)C(=O)N[C@H](C(=O)N[C@@H](CS)C(=O)N[C@@H](CC(=O)O)C(=O)O)[C@@H](C)CC [Peptide N102M479D, CLDQIGEFQCICD] (H-CLDQIGEFQCICD-OH; N-terminus and C-terminus assumed)"
  IC50 at 3 days: "> 100 µM"
- molecule: "CC[C@H](C)[C@H](NC(=O)[C@H](CCC(N)=O)NC(=O)[C@H](CC(=O)O)NC(=O)[C@H](CC(C)C)NC(=O)[C@H](CS)NC(=O)[C@@H](N)CC(C)C)C(=O)NCC(=O)N[C@@H](CCC(=O)O)C(=O)N[C@@H](Cc1ccccc1)C(=O)N[C@@H](CCC(N)=O)C(=O)N[C@@H](CS)C(=O)N[C@H](C(=O)N[C@@H](CS)C(=O)N[C@@H](CCC(=O)O)C(=O)O)[C@@H](C)CC [N102T466L-M479E, LCLDQIGEFQCICE] (H-LCLDQIGEFQCICE-OH; N-terminus and C-terminus assumed)"
  IC50 at 3 days: "> 100 µM"
- molecule: "CC[C@H](C)[C@H](NC(=O)[C@H](CCC(N)=O)NC(=O)[C@H](CC(=O)O)NC(=O)[C@H](CC(C)C)NC(=O)[C@@H](N)CS)C(=O)NCC(=O)N[C@@H](CCC(=O)O)C(=O)N[C@@H](Cc1ccccc1)C(=O)N[C@@H](CCC(N)=O)C(=O)N[C@@H](CS)C(=O)N[C@H](C(=O)N[C@@H](CS)C(=O)N[C@@H](CCC(=O)O)C(=O)O)[C@@H](C)CC [Peptide N102M479E, CLDQIGEFQCICE] (H-CLDQIGEFQCICE-OH; N-terminus and C-terminus assumed)"
  IC50 at 3 days: "> 100 µM"
- molecule: "CC[C@H](C)[C@H](NC(=O)[C@H](CCC(N)=O)NC(=O)[C@H](CC(=O)O)NC(=O)[C@H](CC(C)C)NC(=O)[C@H](CS)NC(=O)[C@@H](N)Cc1ccc(O)cc1)C(=O)NCC(=O)N[C@@H](CCC(=O)O)C(=O)N[C@@H](Cc1ccccc1)C(=O)N[C@@H](CCC(N)=O)C(=O)N[C@@H](CS)C(=O)N[C@H](C(=O)N[C@@H](CS)C(=O)N[C@@H](CCC(=O)O)C(=O)O)[C@@H](C)CC [N102T466Y-M479E, YCLDQIGEFQCICE] (H-YCLDQIGEFQCICE-OH; N-terminus and C-terminus assumed)"
  IC50 at 3 days: "> 100 µM"
- molecule: "CC[C@H](C)[C@H](NC(=O)[C@H](CCC(N)=O)NC(=O)[C@H](CC(=O)O)NC(=O)[C@H](CC(C)C)NC(=O)[C@H](CS)NC(=O)[C@@H](N)Cc1ccccc1)C(=O)NCC(=O)N[C@@H](CCC(=O)O)C(=O)N[C@@H](Cc1ccccc1)C(=O)N[C@@H](CCC(N)=O)C(=O)N[C@@H](CS)C(=O)N[C@H](C(=O)N[C@@H](CS)C(=O)N[C@@H](CCC(=O)O)C(=O)O)[C@@H](C)CC [N102T466F-M479E, FCLDQIGEFQCICE] (H-FCLDQIGEFQCICE-OH; N-terminus and C-terminus assumed)"
  IC50 at 3 days: "> 100 µM"
- molecule: "CC[C@H](C)[C@H](NC(=O)[C@H](CCC(N)=O)NC(=O)[C@H](CC(=O)O)NC(=O)[C@H](CC(C)C)NC(=O)[C@H](CS)NC(=O)[C@@H](N)Cc1c[nH]c2ccccc12)C(=O)NCC(=O)N[C@@H](CCC(=O)O)C(=O)N[C@@H](Cc1ccccc1)C(=O)N[C@@H](CCC(N)=O)C(=O)N[C@@H](CS)C(=O)N[C@H](C(=O)N[C@@H](CS)C(=O)N[C@@H](CCC(=O)O)C(=O)O)[C@@H](C)CC [N102T466W-M479E, WCLDQIGEFQCICE] (H-WCLDQIGEFQCICE-OH; N-terminus and C-terminus assumed)"
  IC50 at 3 days: "> 100 µM"
- molecule: "CC[C@H](C)[C@H](N)C(=O)N[C@@H](CS)C(=O)N[C@@H](CC(C)C)C(=O)N[C@@H](CC(=O)O)C(=O)N[C@@H](CCC(N)=O)C(=O)N[C@H](C(=O)NCC(=O)N[C@@H](CCC(=O)O)C(=O)N[C@@H](Cc1ccccc1)C(=O)N[C@@H](CCC(N)=O)C(=O)N[C@@H](CS)C(=O)N[C@H](C(=O)N[C@@H](CS)C(=O)N[C@@H](CCC(=O)O)C(=O)O)[C@@H](C)CC)[C@@H](C)CC [N102T466I-M479E, ICLDQIGEFQCICE] (H-ICLDQIGEFQCICE-OH; N-terminus and C-terminus assumed)"
  IC50 at 3 days: "> 100 µM"

Each recorded value in this set is attributed to patent US11117932B2.
